- System: RXRa homodimer (NR concentration 180 nM)
- PROTOCOL NOTES: PBM binding z-score (relative to random genomic background probes); higher = stronger binding; sequences stand for … in GC…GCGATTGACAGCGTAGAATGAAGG
Would you mind labelling by PBM binding z-score? At or over 2 is met, under is not met.

Use the examples below as a reference point.
- SEQ STRING: "ACTAGCAGGCCGAGGGTCACTCAAGATTAGTCCG"
  ASSIGNED LABEL: "met"
- SEQ STRING: "CCTCGGAGGACAACAGGAGGTCAGATCTGCCAGA"
  ASSIGNED LABEL: "not met"
- SEQ STRING: "ACACACAGGTGATGAAGGTAACTCAGGCTATCAT"
  ASSIGNED LABEL: "not met"
- SEQ STRING: "ACTATTAGTTGACTTAGGGTAACCGATACGACGC"
  ASSIGNED LABEL: "not met"

Prompt line: Confirm if PBM binding z-score reported for the sequence "CCAGACAGGTCAAAGGTAACTCAGTCTGGTACGC" is 2 or above.
Response line: met

Prompt line: Confirm if PBM binding z-score reported for the sequence "TTACCCAGGTGAAAGGTCGTTGATGCACGCCTTG" is 2 or above.
Response line: met
